Ref: patent US20230210831A1

tested on: Salmonella typhimurium TA1537; experiment: Ames test (reverse mutation test), TA1537; format: cell-based; conditions: S9 Mix -; dose 556 µg/plate
endpoint: Number of revertant colonies TA1537
Please reply with the number alone, leaving off any unit.

Worked cases, answers included:
INSERT INTO assay_data (compound, tested_system, test_value) VALUES
  ('CC(C)(OCc1cc(F)cc(-c2cc(N)nn2-c2ccc(F)cc2)c1)C(F)(F)F [Metabolite D]', 'Salmonella typhimurium TA1537', 7),
  ('Cc1cccc(-n2nc(N)cc2-c2cccc(OC(F)(F)F)c2)c1 [Metabolite H]', 'Salmonella typhimurium TA1537', 6),
  ('Nc1cc(-c2cccc(OC(F)(F)F)c2)n(-c2cccc(F)c2)n1 [Metabolite G]', 'Salmonella typhimurium TA1537', 0),
  ('Cc1ccc(-n2nc(N)cc2-c2cccc(OCC(F)(F)F)c2)cc1 [Metabolite F]', 'Salmonella typhimurium TA1537', 0);

Kindly review the next compound as well.
// query Provide one value: measured Number of revertant colonies TA1537 of Nc1cc(-c2cccc(OCC(F)(F)F)c2)n(-c2ccc(F)cc2)n1 [Metabolite E]
// result 0
